Biological target: recombinant human PAI-1 (Homo sapiens)
Experiment: Test Example 2: Human PAI-1 Inhibitory Activity (pH 7.4 HEPES buffer, 10 minutes incubation with two-chain tPA)
Format: biochemical
Parameters: purchased Molecular Innovations, Inc
Details: read-out: Inhibition Rate of PAI-1 Activity (%)
Would you please tag the item Y when its inhibition at 1 µM is 90% or above, and N when it is below?

Solved cases below.
| COMPOUND | DISCRETE LABEL |
| --- | --- |
| CC(C)(C)c1ccc(Oc2cc(-c3cccc(C(F)(F)F)c3)ccc2CCC(=O)O)cc1 [Compound 332] | N |
| CC(C)(C)c1ccc(Oc2cc(-c3ccc4ccccc4c3)ccc2CCC(=O)O)cc1 [Compound 470] | N |
| CC(C)(Oc1cc(-c2ccc(OC(F)(F)F)cc2)ccc1OCc1ccc(C(C)(C)C)cc1)C(=O)O [Compound 106] | N |

[Q] hey, is inhibition at 1 µM for this one >= 90%? CCCCCCCCCOc1ccc(N(CCCCc2ccccc2)C(=O)C(=O)O)cc1-c1ccc(OC(F)(F)F)cc1 [Compound 387]
[A] Y

[Q] Check the entry CC(Oc1cc(-c2ccc(OC(F)(F)F)cc2)ccc1/C=C/C(=O)O)c1ccccc1 (centres unmarked) [Compound 500] : does inhibition at 1 µM equal or exceed 90%?
[A] N

[Q] Quick check: does CCCCC(C(=O)O)N(Cc1ccc(C(C)(C)C)cc1)c1ccc(-c2ccc(OC(F)(F)F)cc2)cc1 (centres unmarked) [Compound 642] have inhibition at 1 µM greater than or equal to 90%?
[A] Y

----------
Target: recombinant rat PAI-1 (Rattus norvegicus, UniProt P20961)
Sequence (P20961 24-402): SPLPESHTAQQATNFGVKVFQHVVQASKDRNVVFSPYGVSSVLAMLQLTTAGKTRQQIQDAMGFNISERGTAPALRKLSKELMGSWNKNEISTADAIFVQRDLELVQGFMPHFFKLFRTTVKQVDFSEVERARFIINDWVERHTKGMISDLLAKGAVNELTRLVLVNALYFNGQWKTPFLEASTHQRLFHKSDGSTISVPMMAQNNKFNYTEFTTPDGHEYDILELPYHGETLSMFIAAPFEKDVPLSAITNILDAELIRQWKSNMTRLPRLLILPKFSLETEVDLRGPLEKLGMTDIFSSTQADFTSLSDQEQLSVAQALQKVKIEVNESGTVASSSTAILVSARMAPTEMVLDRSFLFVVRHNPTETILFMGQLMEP
Assay: biochemical
Details: read-out: Inhibition Rate of PAI-1 Activity (%)
As shown below, each of these compounds has a reported inhibition at 1 µM value.
Hi! Could you send only the number? It should be in %, unit omitted.

Look over these answered cases.
| SMILES STRUCTURE | UNIT ANNOTATION | inhibition at 1 µM |
| --- | --- | --- |
| CC(C)(C)c1ccc(Oc2ccc(-c3ccc(OC(F)(F)F)cc3)cc2CCC(=O)O)cc1 | % | 14 |
| CC(C)(C)c1ccc(Oc2cccc(-c3ccc(OC(F)(F)F)cc3)c2OCC(=O)O)cc1 | % | 9 |
| CC(C)(C)c1ccc(CN(C(=O)C(=O)O)c2ccc(Oc3ccc(OC(F)(F)F)cc3)cc2C(F)(F)F)cc1 | % | 11 |
| CCCCc1ccc(CN(C(=O)C(=O)O)c2ccc(-c3ccc(C(C)(C)C)cc3)cc2)cc1 | % | 29 |
| CC(C)(Oc1cc(-c2ccc(OC(F)(F)F)cc2)ccc1OCCCCc1ccccc1)C(=O)O | % | 12 |

[Q] Can you look up inhibition at 1 µM on recombinant rat PAI-1 (Rattus norvegicus, UniProt P20961) for `CCC(CC)Oc1ccc(N(Cc2ccc(C(C)(C)C)cc2)C(=O)C(=O)O)cc1-c1ccc(OC(F)(F)F)cc1` ?
[A] 37

[Q] Param readout = inhibition at 1 µM; param system = recombinant rat PAI-1 (Rattus norvegicus, UniProt P20961); param query = `CC(C)(C)c1ccc(COc2ccc(Oc3ccc(OC(F)(F)F)cc3)cc2CCC(=O)O)cc1` ; response: value
[A] 14

----------
Biological target: recombinant human PAI-1 (Homo sapiens, UniProt P05121)
Sequence (P05121 24-402): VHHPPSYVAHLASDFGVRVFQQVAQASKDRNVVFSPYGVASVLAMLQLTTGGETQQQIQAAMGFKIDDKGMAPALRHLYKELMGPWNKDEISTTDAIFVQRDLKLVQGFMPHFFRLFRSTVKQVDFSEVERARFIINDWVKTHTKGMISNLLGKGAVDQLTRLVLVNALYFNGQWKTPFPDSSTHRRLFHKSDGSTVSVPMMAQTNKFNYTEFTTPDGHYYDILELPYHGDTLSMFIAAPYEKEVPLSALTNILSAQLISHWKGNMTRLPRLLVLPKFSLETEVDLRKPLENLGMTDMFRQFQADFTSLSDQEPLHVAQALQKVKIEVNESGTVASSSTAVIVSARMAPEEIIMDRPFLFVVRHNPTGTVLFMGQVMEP
Assay: Test Example 2: Human PAI-1 Inhibitory Activity (pH 7.4 HEPES buffer, 10 minutes incubation with two-chain tPA)
Assay type: biochemical
Set-up: purchased Molecular Innovations, Inc
Settings: read-out: Inhibition Rate of PAI-1 Activity (%)
PROPERTY MEASURED: inhibition at 0.1 µM (%)
Expressed in %, but write only the number.

Here are 5 compounds together with their reported answers.
| COMPOUND | OBSERVED VALUE |
| --- | --- |
| CC(C)(C)[C@H]1CC[C@H](N(C(=O)C(=O)O)c2ccc(-c3ccc(OC(F)(F)F)cc3)cc2)CC1 | 9 |
| CCCCCOc1cc(-c2ccc(C(F)(F)F)cc2)ccc1N(CCCCc1ccccc1)C(=O)C(=O)O | 7 |
| CCCCCCCOc1ccc(-c2ccc(OC(F)(F)F)cc2)cc1N(CCCCc1ccccc1)C(=O)C(=O)O | 0 |
| CC(C)(C)c1ccc(COc2cc(-c3ccc(OC(F)(F)F)cc3)ccc2CCC(=O)O)cc1 | 10 |
| CCCCCOc1cc(-c2ccc(OC(F)(F)F)cc2)ccc1N(CCCCc1ccccc1)C(=O)C(=O)O | 10 |

[Q] Endpoint output: inhibition at 0.1 µM of `CC(C)(C)c1ccc(Oc2cc(-c3ccccc3OC(F)(F)F)ccc2CCC(=O)O)cc1` . Value?
[A] 2

[Q] Given the entry `CCCCCOc1ccc(-c2ccc(OC(F)(F)F)cc2)cc1N(CCCOCc1ccccc1)C(=O)C(=O)O` , report its measured inhibition at 0.1 µM.
[A] 3

[Q] Request the reported inhibition at 0.1 µM associated with `CCCCOc1cccc(Oc2cc(-c3ccc(OC(F)(F)F)cc3)ccc2CCC(=O)O)c1`
[A] 15

[Q] Dear colleague, I am looking for the recorded inhibition at 0.1 µM of the following compound: `CC(C)(C)c1ccc(Oc2cc(-c3cccc(OC(F)(F)F)c3)ccc2CCC(=O)O)cc1`
[A] 13

[Q] // query inhibition at 0.1 µM value for entry `O=C(O)C(=O)N(Cc1ccc2ccccc2c1)c1ccc(-c2ccc(OC(F)(F)F)cc2)cc1`
[A] 6

[Q] Please give the measured inhibition at 0.1 µM for this compound: `CC(C)(C)c1ccc(Oc2ccc(Nc3ccc(OC(F)(F)F)cc3)cc2CCC(=O)O)cc1`
[A] 4

[Q] What measured inhibition at 0.1 µM goes with CCCCCCOc1cc(-c2ccc(OC(F)(F)F)cc2)ccc1OC(CCCCCC)C(=O)O (stereo not shown) ?
[A] 1

[Q] Which inhibition at 0.1 µM is reported for this compound? `O=C(O)C(=O)N(CCCCc1ccccc1)c1cc(-c2ccc(OC(F)(F)F)cc2)ccc1OCCCCCO`
[A] 7

[Q] What inhibition at 0.1 µM value was documented for this compound, `CC(C)c1ccc(Oc2ccc(CCC(=O)O)c(Oc3ccc(C(C)C)cc3)c2)cc1` ?
[A] 0

[Q] Entry `CC(C)(C)c1ccc(Sc2cc(-c3ccc(OC(F)(F)F)cc3)ccc2C(=O)O)cc1` : reported inhibition at 0.1 µM = ?
[A] 4

[Q] Record request: inhibition at 0.1 µM value, item `CC(C)(C)c1ccc(Oc2cc(-c3ccc(OC(F)(F)F)cc3)ccc2/C=C\C(=O)O)cc1`
[A] 9

----------
Biological target: recombinant human PAI-1 (Homo sapiens)
Assay: Test Example 2: Human PAI-1 Inhibitory Activity (pH 7.4 HEPES buffer, 10 minutes incubation with two-chain tPA)
Assay type: biochemical
Set-up: purchased Molecular Innovations, Inc
Conditions: read-out: Inhibition Rate of PAI-1 Activity (%)
PROPERTY MEASURED: inhibition at 25 µM

| SMILES STRUCTURE | inhibition at 25 µM |
| --- | --- |
| CC(C)(C)c1ccc(CN(C(=O)C(=O)O)c2ccc(C(=O)Nc3ccc(OC(F)(F)F)cc3)cc2)cc1 | > 99% |
| CC(C)(C)c1ccc(CN(C(=O)C(=O)O)c2ccc(N3CCN(c4ccc(OC(F)(F)F)cc4)CC3)cc2)cc1 | 90% |
| CN(C(=O)c1ccc(N(Cc2ccc(C(C)(C)C)cc2)C(=O)C(=O)O)cc1)c1ccc(OC(F)(F)F)cc1 | > 99% |
| CC(C)(C)c1ccc(CN(C(=O)CCCC(=O)O)c2ccc(-c3ccc(OC(F)(F)F)cc3)cc2)cc1 | 46% |
| CC(C)(C)c1ccc(COc2ccc(N3CCN(c4ccc(OC(F)(F)F)cc4)CC3)cc2CCC(=O)O)cc1 | > 99% |

[Q] # query: inhibition at 25 µM | item `CC(C)(C)c1ccc(CN(C(=O)C(=O)O)c2ccc(N3CCN(c4ccccc4)CC3)cc2)cc1` | system: recombinant human PAI-1 (Homo sapiens)
[A] > 99%

[Q] Find the measured inhibition at 25 µM: item `CC(C)(C)c1ccc(COc2ccc(N3CCN(c4ccc(OC(F)(F)F)cc4)CC3)cc2/C=C/C(=O)O)cc1` , target or system recombinant human PAI-1 (Homo sapiens).
[A] 90%

----------
Biological target: recombinant human PAI-1 (Homo sapiens)
Test: biochemical
Settings: read-out: Inhibition Rate of PAI-1 Activity (%), Compound Concentration 10µM
Rule: inhibition at 10 µM of 90% or more gives Yes; anything lower gives No.

Reference set (3 entries):
| SMILES STRUCTURE | DISCRETE LABEL |
| --- | --- |
| CCC(CC)Oc1ccc(N(CCCc2ccccc2)C(=O)C(=O)O)cc1-c1ccc(OC(F)(F)F)cc1 | Yes |
| CC(C)c1ccc(Oc2ccc(CCC(=O)O)c(Oc3ccc(C(C)C)cc3)c2)cc1 | No |
| CC(C)(Oc1cccc(-c2ccc(OC(F)(F)F)cc2)c1OCc1ccc(C(C)(C)C)cc1)C(=O)O | No |

[Q] Is it the case that `CCCOc1ccc(N(Cc2ccc(C(C)(C)C)cc2)C(=O)C(=O)O)cc1-c1ccc(OC(F)(F)F)cc1` has inhibition at 10 µM reaching or exceeding 90%?
[A] No

[Q] For this compound, is measured inhibition at 10 µM 90% or higher? `CCCOc1ccc(N(Cc2ccc(C(C)(C)C)cc2)C(=O)C(=O)O)c(-c2ccc(OC(F)(F)F)cc2)c1`
[A] Yes

[Q] Is it the case that `CC(C)(Oc1cc(-c2ccc(OC(F)(F)F)cc2)ccc1OCc1ccc(C(C)(C)C)cc1)C(=O)O` has inhibition at 10 µM reaching or exceeding 90%?
[A] No
